B1: Chromodomain-helicase-DNA-binding protein 4, residues 444 to 496; numbered along this chain, Q14839 (parent)
chain: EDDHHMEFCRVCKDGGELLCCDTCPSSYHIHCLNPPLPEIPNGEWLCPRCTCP

# Variants of: B1
# method_summary: abundance fitness (aPCA) (normalised: wild type 0, dead -1); higher = more abundant; growth selection in yeast, the domain comes from the species named
# condition_context: Homo sapiens
experimental_endpoint: abundance fitness

>  <variant_notation>
N42H

>  <experimental_endpoint>
abundance fitness

>  <result>
-0.094

$$$$
>  <variant_notation>
P48W

>  <experimental_endpoint>
abundance fitness

>  <result>
-0.349

$$$$
>  <variant_notation>
H5Y

>  <experimental_endpoint>
abundance fitness

>  <result>
0.097

$$$$
>  <variant_notation>
D3P

>  <experimental_endpoint>
abundance fitness

>  <result>
-0.174

$$$$
>  <variant_notation>
L18T

>  <experimental_endpoint>
abundance fitness

>  <result>
-0.373

$$$$
>  <variant_notation>
T23V

>  <experimental_endpoint>
abundance fitness

>  <result>
-0.075

$$$$
>  <variant_notation>
P38H

>  <experimental_endpoint>
abundance fitness

>  <result>
-0.008

$$$$
>  <variant_notation>
G16I

>  <experimental_endpoint>
abundance fitness

>  <result>
-0.74

$$$$
>  <variant_notation>
E39T

>  <experimental_endpoint>
abundance fitness

>  <result>
0.025

$$$$
>  <variant_notation>
M6R

>  <experimental_endpoint>
abundance fitness

>  <result>
-0.477

$$$$
>  <variant_notation>
P36T

>  <experimental_endpoint>
abundance fitness

>  <result>
-0.18

$$$$
